- System: AU565 (Her2 amp)
- Run Description: Growth inhibition GI50 in vitro (CCK8/MTT, 72 h)
- Type: cell-based, human
- Protocol Conditions: Homo sapiens, AU565; HER2 positive cell line; range of GI50; read-out: GI50 AU-565
Value Type: GI50

Some compounds with known GI50 results, for comparison:
Sample Smiles | GI50
C=CC(=O)Nc1cc(Nc2cc(-c3cn(CC)c4ccccc34)ncn2)c(OC)cc1N(C)CCN(C)C | 10 to 100 nM
C=CC(=O)Nc1cc(Nc2nccc(Nc3cccc(Br)c3)n2)c(OC)cc1N(C)CCN(C)C | 10 to 100 nM
C=CC(=O)Nc1cc(Nc2ncnc(Nc3ccc(F)c(Cl)c3)n2)c(OC)cc1N(C)CCN(C)C | 10 to 100 nM
C=CC(=O)Nc1cc(Nc2ncnc(Nc3cccc(Br)c3)n2)c(OC)cc1N1CCC(N2CCCC2)CC1 | < 10 nM
C=CC(=O)Nc1cc(Nc2ncnc(Nc3cccc(F)c3)n2)c(OC)cc1N(C)CCN(C)C | < 10 nM
C=CC(=O)Nc1cc(Nc2nccc(Nc3ccc(OCc4ccccn4)c(Cl)c3)n2)c(OC)cc1N1CCC(N(C)C)CC1 | 10 to 100 nM

So what does the record say about GI50 for C=CC(=O)Nc1cc(Nc2ncnc(Nc3cccc(C(F)(F)F)c3)n2)c(OC)cc1N(C)CCN(C)C ?
10 to 100 nM
